assay: TEAD-YAP interaction inhibition, primary screen, TEAD-YAP interaction inhibitor project, luminescence, HEK-TIYL cells (AID 1259422); conditions: TEAD-Gal4/YAP UAS-luciferase luminescence, at 9.12 µM
Hit rate of the full screen: of about 640,000 compounds, about 9,300 (1.5%) were called active. No stated cut-off is given here; in the data, active means inhibition above about 32%; inactive means the rest. Shown is part of a subset that was picked to be rich in actives.
Entry note: the call must match one of active, inactive

Q. Lab log entry: COc1cc(Nc2nc(NCc3nc4ccccc4[nH]3)c3ncn(C(C)C)c3n2)cc(OC)c1OC — outcome as called in the assay?
A. active

Q. What do you get for CC(C)n1cnc2c(NCc3nc4ccccc4[nH]3)nc(Cl)nc21 ?
A. active

Q. What do you get for O=[N+]([O-])c1ccc2c(c1)nc1ccccn12 ?
A. inactive

Q. What do you get for COc1cccc(/C=N/N=C2/NC(=O)CS2)c1O ?
A. active

Q. What do you get for Cc1nc(N2CCN(c3ccccn3)CC2)c2c(C)c(C(=O)N3CCN(Cc4ccc5c(c4)OCO5)CC3)sc2n1 ?
A. active

Q. What do you get for COc1ccc(/C=N/N=C2/NC(=O)CS2)c(OC)c1 ?
A. inactive

Q. What do you get for Cc1cc2nnn(C[C@@H](C)NC(=O)Cc3ccccc3)c2cc1C ?
A. inactive

Q. What do you get for O=C(N/N=C/c1cccc2ccccc12)C(=O)N/N=C/c1cccc2ccccc12 ?
A. inactive

Q. What do you get for COc1cc(Nc2cc(C(=O)NCc3nc4ccccc4[nH]3)ccn2)cc(OC)c1OC ?
A. inactive

Q. What do you get for COc1cccc(/C=N/NC(=O)c2ccccc2I)c1O ?
A. inactive

Q. What do you get for CCCCNc1ncnc2c1[nH]c1ccc(F)cc12 ?
A. active

Q. What do you get for CCOc1ccc(-c2nc(-c3cccc([N+](=O)[O-])c3)no2)cc1 ?
A. inactive

Q. What do you get for CCC(C)c1ccccc1NC(=O)C(C)Cl (stereo not drawn) ?
A. inactive

Q. What do you get for CCN1CCN(C(=O)c2sc3nc(C)nc(N4CCN(c5ccccn5)CC4)c3c2C)CC1 ?
A. inactive

Q. What do you get for FC(F)(F)c1ccc(Cn2cnc3c(NCc4nc5ccccc5[nH]4)nc(Cl)nc32)cc1 ?
A. inactive

Q. What do you get for COc1cccc(/C=N/NC(=O)c2cc(O)cc(O)c2)c1O ?
A. inactive

Q. What do you get for N#CC(=C1C(=O)c2ccccc2C1=O)c1nc2ccccc2[nH]1 ?
A. inactive

Q. What do you get for Cc1ccc2[nH]c3c(=O)n(N)cnc3c2c1 ?
A. inactive

Q. What do you get for CCOC(=O)C(CC)Sc1nnc2c(n1)[nH]c1ccc(F)cc12 (stereo not drawn) ?
A. inactive

Q. What do you get for CN(CC(=O)Nc1ccccc1F)CC(=O)Nc1ccccc1Br ?
A. inactive

Q. What do you get for N#CC1(NS(=O)(=O)c2cc([N+](=O)[O-])ccc2Cl)CCCCC1 ?
A. inactive

Q. What do you get for COc1ccc(CC(=O)N/N=C(\C)c2ccccn2)cc1OC ?
A. inactive

Q. What do you get for COc1cc(/C=N/N=C2/NC(=O)CS2)ccc1OC(=O)c1ccccc1C ?
A. inactive
